Measured MICUTBLP [MICcombo] accompanies every entry in the list below.
# Test system: S. aureus ATCC 29213
# Type: cell-based, Staphylococcus aureus
# Applied conditions: UTBLP in combination with chloramphenicol
Residues, ends and D or L forms follow the SMILES beside them. *: point of attachment. Octanoyl = CCCCCCCC(=O)*
Measurement type: MICUTBLP [MICcombo] (µg/mL)

INSERT INTO assay_data (molecule, test_system, unit_descriptor, endpoint_result) VALUES
  ('CCCCCCCC(=O)N[C@@H](CCCCNC)C(=O)NCCCN(CCCNC(=O)[C@H](CCCCNC)NC(=O)CCCCCCC)CC(=O)N[C@@H](CCCCNC)C(N)=O [UTBLP 2]', 'S. aureus ATCC 29213', 'µg/mL', 0.25),
  ('CCCCCCCC(=O)NCCCC[C@H](NC(=O)CCCCCCC)C(=O)N[C@@H](CCCCN)C(=O)N[C@@H](CCCCN)C(=O)N[C@@H](CCCCN)C(=O)N[C@@H](CCCCN)C(N)=O [UTBLP 5] (Octanoyl-K(Octanoyl)KKKK-NH2)', 'S. aureus ATCC 29213', 'µg/mL', 16),
  ('CCCCCCCC(=O)N[C@@H](CCCCN)C(=O)NCCCN(CCCNC(=O)[C@H](CCCCN)NC(=O)CCCCCCC)CC(=O)N[C@@H](CCCCN)C(N)=O [UTBLP 1]', 'S. aureus ATCC 29213', 'µg/mL', 0.25),
  ('CCCCCCCC(=O)N[C@@H](CCCCN(C)C)C(=O)NCCCN(CCCNC(=O)[C@H](CCCCN(C)C)NC(=O)CCCCCCC)CC(=O)N[C@@H](CCCCN(C)C)C(N)=O [UTBLP 3]', 'S. aureus ATCC 29213', 'µg/mL', 0.25);

---

Measured MICantibiotic [MICcombo] accompanies every entry in the list below.
# Test system: E. coli ATCC 25922
# Assay type: cell-based, Escherichia coli
# Applied conditions: chloramphenicol in combination with the UTBLP
Non-standard residues stand in square brackets, D forms with d. Residues, ends and D or L forms follow the SMILES beside them. *: point of attachment. Lys(Me3) = C[N+](C)(C)CCCC[C@H](N)C(=O)O; Lys(Me2) = CN(C)CCCC[C@H](N)C(=O)O; Octanoyl = CCCCCCCC(=O)*
Measurement type: MICantibiotic [MICcombo] (µg/mL)

INSERT INTO results (compound, unit_descriptor, endpoint_result) VALUES
  ('CCCCCCCC(=O)N[C@@H](CCCCN(C)C)C(=O)NCCCN(CCCNC(=O)[C@H](CCCCN(C)C)NC(=O)CCCCCCC)CC(=O)N[C@@H](CCCCN(C)C)C(N)=O [UTBLP 3]', 'µg/mL', 2),
  ('CCCCCCCC(=O)NCCCC[C@H](NC(=O)CCCCCCC)C(=O)N[C@@H](CCCC[N+](C)(C)C)C(=O)N[C@@H](CCCC[N+](C)(C)C)C(=O)N[C@@H](CCCC[N+](C)(C)C)C(=O)N[C@@H](CCCC[N+](C)(C)C)C(N)=O [UTBLP 8] (Octanoyl-K(Octanoyl)[Lys(Me3)][Lys(Me3)][Lys(Me3)][Lys(Me3)]-NH2)', 'µg/mL', 2),
  ('CCCCCCCC(=O)NCCCC[C@H](NC(=O)CCCCCCC)C(=O)N[C@@H](CCCCN(C)C)C(=O)N[C@@H](CCCCN(C)C)C(=O)N[C@@H](CCCCN(C)C)C(=O)N[C@@H](CCCCN(C)C)C(N)=O [UTBLP 7] (Octanoyl-K(Octanoyl)[Lys(Me2)][Lys(Me2)][Lys(Me2)][Lys(Me2)]-NH2)', 'µg/mL', 0.5),
  ('CCCCCCCC(=O)N[C@@H](CCCCNC)C(=O)NCCCN(CCCNC(=O)[C@H](CCCCNC)NC(=O)CCCCCCC)CC(=O)N[C@@H](CCCCNC)C(N)=O [UTBLP 2]', 'µg/mL', 2);
